FYI, the data here is from a melting point compilation (Tetko et al.; mined from patent text by program, amines drawn as free bases though some values may be those of a salt).

Parameter: melting point. Scope: all listed entries.

Guide cases for melting point, answers given:
molecule	reported endpoint	assay result
OCC1OC(n2cnc3c(NCCc4c[nH]c5ccccc45)ncnc32)C(O)C1O (stereo unspecified)	melting point	187 °C
CCOC(=O)c1cc(=O)c2c(OCC(O)COc3ccc(C#N)cc3)cccc2o1 (stereo unspecified)	melting point	137 to 139 °C
COC(=N)c1ccc(-c2ccc([N+](=O)[O-])cc2)o1	melting point	184 to 188 °C
O=c1cc(-c2ccccc2)oc2cc(OCC(O)CNCCCCc3cccnc3)ccc12 (stereo unspecified)	melting point	116 to 119 °C

Prompt: Given the entry COC(=O)c1nc(OC)n2c1CN=C(c1ccccc1Cl)c1cc(Cl)ccc1-2 , report its measured melting point.
Response: 155 to 160 °C

Prompt: What do you get for CC(=O)N1CCN(c2cc(Cl)c(Cl)c(Cl)c2)CC1 ?
Response: 133 to 136 °C

Prompt: What do you get for CN1CCN(c2cc3c(cc2F)c(=O)c(C(=O)O)cn3CCF)CC1 ?
Response: 256 to 258 °C

Prompt: What do you get for CCOc1ccc(C2=NN(CC3CC3)C(=O)[C@H]3CC=CC[C@@H]23)cc1OCC (relative stereo) ?
Response: 142 to 145 °C

Prompt: What do you get for Nc1c(C(=O)O)c(=O)[nH]c2cc(Cl)ccc12 ?
Response: > 330 °C

Prompt: What do you get for Cc1oc(COc2ccccc2/C=C/C=C/C#N)nc1-c1ccccc1 ?
Response: 128 to 129 °C

Prompt: What do you get for COCC#Cc1ccc(C(CC2CCCC2)C(=O)O)cc1 (stereo unspecified) ?
Response: 82 to 85 °C

Prompt: What do you get for Cc1c(O)ccc2c(-c3ccccc3F)noc12 ?
Response: 216 to 219 °C
